The reported measurements were obtained from patent US20240400670A1.

STUDY TARGET: T1, human IL-23 (Sino Biological, CT048-H08H) (human, UniProt Q9NPF7 20-189; P29460 23-328)
T1 sequence (looked up) 1: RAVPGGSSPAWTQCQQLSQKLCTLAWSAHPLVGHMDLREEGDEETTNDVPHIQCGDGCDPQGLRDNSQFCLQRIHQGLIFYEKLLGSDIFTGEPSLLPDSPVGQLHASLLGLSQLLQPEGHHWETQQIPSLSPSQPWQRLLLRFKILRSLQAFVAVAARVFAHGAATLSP
T1 sequence (looked up) 2: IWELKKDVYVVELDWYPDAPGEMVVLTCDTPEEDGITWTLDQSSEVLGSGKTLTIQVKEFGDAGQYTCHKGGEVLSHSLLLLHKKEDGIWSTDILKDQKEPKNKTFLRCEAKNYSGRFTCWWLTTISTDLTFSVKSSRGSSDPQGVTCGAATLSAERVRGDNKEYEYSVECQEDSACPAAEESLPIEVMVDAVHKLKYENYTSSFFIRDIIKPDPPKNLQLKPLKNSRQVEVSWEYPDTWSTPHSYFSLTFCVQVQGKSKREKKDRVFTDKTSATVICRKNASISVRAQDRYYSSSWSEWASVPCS
ASSAY NAME: cell-based or functional assay
Exercise: state measured Activity in inhibiting proliferation of BaF3-IL-23R cells (IC50, nM) for each of the binders provided.
Numbers only, in nM.

Some binders with recorded Activity in inhibiting proliferation of BaF3-IL-23R cells (IC50, nM):
Hu38-16 (antibody, human IgG1, kappa, L234A L235A, V domains shown, humanized mAb38, IgG1/kappa) VH: EFQLVQSGAEVKKPGASVKVSCKASGYSFTDHNMNWVRQAPGQSLEWMGVINPNYGTTTYNQKFKGRVTITVDQSASTAYMELSSLRSEDTAVYYCARRGFAYWGQGTLVTVSS VL: DIVMTQTPLSLPVTPGEPASISCRSSKSLLYKDGKTYLNWFLQKPGQSPQLLIYLMQTRASGVPDRFSGSGSGTDLTLKISRVEAEDVGVYYCQQIAEYPFTFGSGTKLEIKR	0.146
Hu38-10 (antibody, human IgG1, kappa, L234A L235A, V domains shown, humanized mAb38, IgG1/kappa) VH: EFQLVQSGAEVKKPGASVKVSCKASGYSFTDHNMNWVRQAPGQRLEWMGVINPNYGTTTYNQKFKGRVTITVDQSASTAYMELSSLRSEDTAVYYCARRGFAYWGQGTLVTVSS VL: DIVMTQTPLSLPVTPGEPASISCRSSKSLLYKDGKTYLNWFLQKPGQSPQLLIYLMSTRASGVPDRFSGSGSGTDLTLKISRVEAEDVGVYYCQQIAEYPFTFGSGTKLEIKR	0.116
Hu38-8 (antibody, human IgG1, kappa, L234A L235A, V domains shown, humanized mAb38, IgG1/kappa) VH: EVQLVQSGAEVKKPGASVKVSCKASGYSFTDHNMNWVRQAPGQRLEWMGVINPNYGTTTYNQKFKGRVTITVDTSASTAYMELSSLRSEDTAVYYCARRGFAYWGQGTLVTVSS VL: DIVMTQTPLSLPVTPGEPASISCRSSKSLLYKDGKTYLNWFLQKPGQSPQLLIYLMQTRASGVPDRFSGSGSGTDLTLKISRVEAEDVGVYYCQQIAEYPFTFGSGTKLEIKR	0.174

Working through the 2 binders below one at a time, give Activity in inhibiting proliferation of BaF3-IL-23R cells (IC50, nM) for each.
1. Hu38-15 (antibody, human IgG1, kappa, L234A L235A, V domains shown, humanized mAb38, IgG1/kappa) VH: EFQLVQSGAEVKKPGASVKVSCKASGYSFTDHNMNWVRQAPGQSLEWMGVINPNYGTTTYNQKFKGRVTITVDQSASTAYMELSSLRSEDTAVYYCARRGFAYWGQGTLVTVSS VL: DIVITQTPLSLPVTPGEPASISCRSSKSLLYKDGKTYLNWFLQRPGQSPQLLIYLMSTRASGVPDRFSGSGSGTDLTLKISRVEAEDVGVYYCQQIAEYPFTFGSGTKLEIKR
2. Hu38-2 (antibody, human IgG1, kappa, L234A L235A, V domains shown, humanized mAb38, IgG1/kappa) VH: EFQLVQSGAEVKKPGASVKVSCKASGYTFTDHNMNWVRQAPGQRLEWMGVINPNYGTTTYNQKFKGRVTITVDTSASTAYMELSSLRSEDTAVYYCARRGFAYWGQGTLVTVSS VL: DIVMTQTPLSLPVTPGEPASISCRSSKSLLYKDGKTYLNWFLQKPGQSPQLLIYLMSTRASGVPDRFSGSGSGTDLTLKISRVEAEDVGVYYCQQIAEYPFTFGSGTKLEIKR

Result ::
0.149
0.138
